- assay-method-text: total protein half-life in vivo (active degradation + dilution); higher = more stable protein
- setup-conditions: E. coli NCM3722 delta-lon; growth: N-lim chemostat; doubling time 6 h
outcome-measure: total protein half-life in vivo (h)
Answers are plain numbers, in h.

seq-string	total protein half-life in vivo [h]
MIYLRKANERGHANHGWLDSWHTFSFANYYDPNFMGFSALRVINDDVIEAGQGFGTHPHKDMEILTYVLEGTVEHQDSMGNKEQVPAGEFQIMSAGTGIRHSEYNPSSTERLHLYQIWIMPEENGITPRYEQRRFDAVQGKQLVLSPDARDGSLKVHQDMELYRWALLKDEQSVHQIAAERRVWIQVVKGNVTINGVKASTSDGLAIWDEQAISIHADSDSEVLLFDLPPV	4.67
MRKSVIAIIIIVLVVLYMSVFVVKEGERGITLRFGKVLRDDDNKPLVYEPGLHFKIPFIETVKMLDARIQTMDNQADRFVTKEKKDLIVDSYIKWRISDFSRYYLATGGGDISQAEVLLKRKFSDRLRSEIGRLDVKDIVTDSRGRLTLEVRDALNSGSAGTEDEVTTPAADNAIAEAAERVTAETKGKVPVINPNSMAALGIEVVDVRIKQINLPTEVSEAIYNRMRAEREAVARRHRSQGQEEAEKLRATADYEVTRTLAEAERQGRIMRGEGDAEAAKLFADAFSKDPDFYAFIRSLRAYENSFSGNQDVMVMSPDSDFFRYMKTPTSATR [P0ABC3]	6.35

Consider the record given below.
The recorded total protein half-life in vivo for entry MTTRVIALDLDGTLLTPKKTLLPSSIEALARAREAGYQLIIVTGRHHVAIHPFYQALALDTPAICCNGTYLYDYHAKTVLEADPMPVIKALQLIEMLNEHHIHGLMYVDDAMVYEHPTGHVIRTSNWAQTLPPEQRPTFTQVASLAETAQQVNAVWKFALTHDDLPQLQHFGKHVEHELGLECEWSWHDQVDIARGGNSKGKRLTKWVEAQGWSMENVVAFGDNFNDISMLEAAGTGVAMGNADDAVKARANIVIGDNTTDSIAQFIYSHLI equals 1.19
